B1: POU domain, class 5, transcription factor 1, residues 134 to 212; numbered along this chain, Q01860 (parent)
chain: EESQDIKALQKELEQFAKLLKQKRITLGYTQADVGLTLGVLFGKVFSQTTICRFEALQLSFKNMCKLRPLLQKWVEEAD

- Variants of: B1
- Method: abundance fitness (aPCA) (normalised: wild type 0, dead -1); higher = more abundant; growth selection in yeast, the domain comes from the species named
- Applied Conditions: Homo sapiens
Measured abundance fitness determines class: Low (below -0.4), Mid (-0.4 to below 0.02), High (0.02 or more)

[
  {
    "Alteration": "T49D",
    "Group Label": "High"
  },
  {
    "Alteration": "F61G",
    "Group Label": "Low"
  },
  {
    "Alteration": "L67W",
    "Group Label": "Low"
  },
  {
    "Alteration": "D79S",
    "Group Label": "Mid"
  },
  {
    "Alteration": "A17P",
    "Group Label": "Mid"
  },
  {
    "Alteration": "Q4A",
    "Group Label": "Mid"
  },
  {
    "Alteration": "N63K",
    "Group Label": "High"
  },
  {
    "Alteration": "T26A",
    "Group Label": "High"
  },
  {
    "Alteration": "F54W",
    "Group Label": "Low"
  },
  {
    "Alteration": "M64T",
    "Group Label": "Low"
  },
  {
    "Alteration": "E77R",
    "Group Label": "Mid"
  },
  {
    "Alteration": "K62H",
    "Group Label": "Mid"
  },
  {
    "Alteration": "C52D",
    "Group Label": "High"
  },
  {
    "Alteration": "K7L",
    "Group Label": "Mid"
  },
  {
    "Alteration": "S60Q",
    "Group Label": "Low"
  },
  {
    "Alteration": "K44Q",
    "Group Label": "Mid"
  },
  {
    "Alteration": "Q4S",
    "Group Label": "Mid"
  },
  {
    "Alteration": "L19E",
    "Group Label": "Low"
  },
  {
    "Alteration": "L57M",
    "Group Label": "High"
  },
  {
    "Alteration": "F46A",
    "Group Label": "Mid"
  },
  {
    "Alteration": "T26M",
    "Group Label": "Mid"
  },
  {
    "Alteration": "R53H",
    "Group Label": "High"
  },
  {
    "Alteration": "E2G",
    "Group Label": "High"
  },
  {
    "Alteration": "F54T",
    "Group Label": "High"
  },
  {
    "Alteration": "K73T",
    "Group Label": "Mid"
  },
  {
    "Alteration": "Q48P",
    "Group Label": "High"
  },
  {
    "Alteration": "E77L",
    "Group Label": "Mid"
  },
  {
    "Alteration": "L70T",
    "Group Label": "Mid"
  },
  {
    "Alteration": "K23T",
    "Group Label": "Mid"
  },
  {
    "Alteration": "K66T",
    "Group Label": "Mid"
  },
  {
    "Alteration": "L57Q",
    "Group Label": "High"
  },
  {
    "Alteration": "T50G",
    "Group Label": "Low"
  },
  {
    "Alteration": "G43V",
    "Group Label": "Low"
  },
  {
    "Alteration": "K73Q",
    "Group Label": "Mid"
  }
]
